Give measured synaptosome phagocytic index for each item. Keep answers brief.
# System: PBMC-derived induced microglia-like cells (piMGLC)
# testDescription: synaptosome phagocytic index relative to DMSO control (fraction of DMSO); higher = more phagocytosis
# reportedConditions: concentration: 10 uM (2 uM for compounds listed in Table S2); pretreatment time: 24 h; assay time: 3 h
Counter-ions that a name gives are not always drawn.

| compound | synaptosome phagocytic index |
| --- | --- |
| CCN1CCN(Cc2ccc(-c3cc4c(N[C@H](C)c5ccccc5)ncnc4[nH]3)cc2)CC1 | 0.0989 |
| CCc1c2c(nc3ccc(OC(=O)N4CCC(N5CCCCC5)CC4)cc13)-c1cc3c(c(=O)n1C2)COC(=O)[C@]3(O)CC [Irinotecan_(hydrochloride_trihydrate)] | 0.682 |
| CCCCCCCCCC(=O)O | 1.32 |
| CCCCN1C[C@H](O)[C@@H](O)[C@H](O)[C@H]1CO [Miglustat_(hydrochloride)] | 1.04 |
| O=c1[nH]c2cc(Cl)ccc2c(O)c1-c1cccc(Oc2ccccc2)c1 | 1.18 |
| CN(C)C(=N)NC(=N)N | 1.28 |
| CC(C)Cc1ccc(C(C)C(=O)O)cc1 (stereo unspecified) | 0.74 |
| CO/N=C(\C(=O)N[C@@H]1C(=O)N2C(C(=O)O)=C(COC(C)=O)CS[C@H]12)c1csc(N)n1 [Cefotaxime_(sodium_salt)] | 0.951 |
| CCc1cc2c(cc1-c1cnn(CC(=O)N(C)C)c1)C(C)(C)c1[nH]c3cc(C#N)ccc3c1C2=O | 0.394 |
| Cc1cc(C)cc(OCC2CNC(=O)O2)c1 (stereo unspecified) | 0.757 |

List reported synaptosome phagocytic index for each of these compounds:
1. COc1ccc(OCCN2CCN(C(=O)c3cc4ccccc4[nH]3)CC2)cc1
2. CCC1(C)CC(=O)NC1=O (stereo unspecified) [Ethosuximide]
3. COc1ccc2c3c1O[C@H]1C[C@@H](O)C=C[C@@]31CCN(C)C2
4. CCN1CCCC1CNC(=O)c1cc(S(N)(=O)=O)ccc1OC (stereo unspecified) [Sulpiride]
5. Cn1nnc2c(C(N)=O)ncn2c1=O [Temozolomide]
6. C[C@]12CCCN1CC1=NNC(=O)c3cc(F)cc4[nH]c2c1c34

# output
[1.22, 0.869, 0.617, 0.571, 0.824, 0.861]

---

# Test system: PBMC-derived induced microglia-like cells (piMGLC)
# testDescription: synaptosome phagocytic index relative to DMSO control (fraction of DMSO); higher = more phagocytosis
# reportedConditions: concentration: 10 uM (2 uM for compounds listed in Table S2); pretreatment time: 24 h; assay time: 3 h
Structures can show the parent of a compound that is named as a salt.
Field: synaptosome phagocytic index. Provide a value for each of the compounds that follow.
Numbers only.

Please review the entries below; each comes with its answer.
| compound | result |
| --- | --- |
| Clc1cccc(Cl)c1NC1=NCCN1 [Clonidine_(hydrochloride)] | 0.898 |
| O=NN(CCCl)C(=O)NC1CCCCC1 | 0.897 |
| CN(C/C=C/C#CC(C)(C)C)Cc1cccc2ccccc12 | 0.502 |
| COc1cc(C(=O)Nc2cc(OC(F)(F)F)ccc2-n2cncn2)ccc1OCC1CC1 | 0.921 |

Could you now consider this next compound?
# input If you can, please state the reported synaptosome phagocytic index value of CC[C@H](NC(=O)c1c(C)c(-c2ccccc2)nc2ccccc12)c1ccccc1 .
# output 0.907
